Each item that follows carries a reported inhibition at 25 µM.
Tested on: Mycobacterium tuberculosis
Test method notes: MMV: Screen against Mtb, single point, non replicating, at 25uM
Format: functional
Expressed in %, but write only the number.

A selection of reference data follows.
N=c1n(CCN2CCCCC2)c2ccccc2n1CC(=O)c1ccc(Cl)c(Cl)c1
17.6
COc1ccc(C(=O)Nc2nonc2-c2ccc(OC)c(OC)c2)cc1Cl
5.57
Cc1ccc(C2CC(C(F)(F)F)n3nc(C(=O)N4CCN(C(c5ccccc5)c5ccccc5)CC4)cc3N2)cc1 (configuration not stated)
10.5
CCOc1ccc(Nc2ccnc3cc(Cl)ccc23)cc1
8.59
CCCCC(O)(c1ccc(Cl)cc1)C(CN1CCOCC1)c1ccc(Cl)cc1 (configuration not stated)
15.2

The compound identified as CCOc1ccccc1CN1CCc2nc3cc(C(C)(C)C)nn3c(O)c2C1 registered its inhibition at 25 µM at 1.04

# inhibition at 25 µM of COc1cc(-c2nc(-c3ccc(Sc4ccccc4)cc3)c(-c3ccccc3)[nH]2)cc(OC)c1O = 13.6

response.value for CN(C)c1ccc(C=Cc2nc(=O)c3ccccc3o2)cc1 (field: inhibition at 25 µM) = 20.4

* * *

System: Mycobacterium tuberculosis
Test method notes: MMV: Screen against Mtb, single point, non replicating, at 25uM
Assay type: functional
Quantity: inhibition at 25 µM
Kindly format the answer as number then unit.

O=C(c1ccccc1F)N(Cc1ccc(Cl)cc1)c1ccccn1
5.4%
CCCC(c1nnnn1C1CCCCC1)N1CCN(C(=O)c2ccco2)CC1 (configuration not stated)
5.57%
CCC(O)c1ccc(Br)cc1NC(=O)c1cccc(Cl)c1 (configuration not stated)
14.6%
COc1ccc(Nc2cc(C)nc(NCc3ccccc3)n2)cc1
22.6%
CCC(C)NCC(O)(c1ccc(Cl)cc1)c1ccc(Cl)cc1 (configuration not stated)
10.6%

Item: CC(=O)c1ccc(NC(=O)CSc2nc(-c3ccccc3Cl)ns2)cc1 | inhibition at 25 µM: 13.4%

Just so you know, measured inhibition at 25 µM for CC(=O)NCCc1nc2ccccc2n1Cc1ccc(C(C)C)cc1 came out at 8.72%

Notebook: CN(C)CCNc1cc(-c2ccccc2)nc2ccccc12 , inhibition at 25 µM read as 6.45%

* * *

// values below are reported inhibition at 25 µM
Tested on: Mycobacterium tuberculosis
Test method notes: MMV: Screen against Mtb, single point, non replicating, at 25uM
Type: functional

Examples from the recorded data:
CC(C)(C)CC(C)(C)NCC(O)COc1ccc(Cl)cc1Cl (stereo unspecified)
30.2%
Nc1ccn([C@@H]2O[C@H](CO)[C@@H](O)[C@H]2O)c(=O)n1
14.6%
CCN(CC)c1ccc(NC(=O)c2cccs2)cc1
13.1%
COc1ccc(CCN2CCC(CN(C)Cc3cnn(-c4ccccc4)c3)CC2)cc1
15%
COc1ccccc1N1CCN(C(CNS(=O)(=O)c2ccc(Cl)cc2)c2cccnc2)CC1 (stereo unspecified)
15.2%

In plain terms, C[n+]1c2ccccc2nc2ccc(NCCO)cc21 has a documented inhibition at 25 µM of 37.7%

// sample CCOc1ccc(N2C(N)=NC(N)=NC2(C)C)cc1 , its inhibition at 25 µM was 8.77%

Quick note, inhibition at 25 µM for COc1ccc(OC)c(C2C3=C(CC(C)(C)CC3=O)N(c3ccc(Cl)c(Cl)c3)C3=C2C(=O)CC(C)(C)C3)c1 landed at 7.7%

So for Clc1ccc2[nH]c3c(NCCCN4CCOCC4)ncnc3c2c1 , the logged inhibition at 25 µM turned out to be 21.6%

Lab book: inhibition at 25 µM of O=C(Nc1ccc(Cl)cc1)N1CCN(c2ccc3nncn3n2)CC1 noted as -3.33%

Entry O=C(Nc1ccc(F)c(Cl)c1)Nc1ccc(Cl)c(Cl)c1 ; inhibition at 25 µM = 100%

* * *

System: Mycobacterium tuberculosis
Test method notes: MMV: Screen against Mtb, single point, non replicating, at 25uM
Format: functional
Assign y to entries whose inhibition at 25 µM meets or exceeds 10%; assign n to the rest.

Answered cases to consult:
O=C(NC1CCN(Cc2ccccc2)CC1)c1cc(-c2cccnc2)nc2ccc(Cl)cc12
y
CCOc1ccc2nc(C)cc(Nc3ccc(Br)cc3)c2c1
y
C=CCc1c(C)nc2ccccc2c1O
n
Cc1cc(Nc2ccc(C)c(Cl)c2)n2nc(C(F)(F)F)nc2n1
n
Cc1ccccc1OCCSc1nc2ccc(NC(=O)c3ccccc3)cc2s1
n

-- ask Is reported inhibition at 25 µM greater than or equal to 10% here: Cn1c(=O)n(C)c2cc(CNCCNc3ccnc4cc(Cl)ccc34)ccc21
-- reply n

-- ask Is inhibition at 25 µM at least 10%? Consider COc1ccc2nc(C)cc(Nc3cccc(O)c3)c2c1
-- reply n

* * *

Tested on: Mycobacterium tuberculosis
Test method notes: MMV: Screen against Mtb, single point, non replicating, at 25uM
Type: functional
Classification field: enter rule met for inhibition at 25 µM values not below 10%, rule not met for values below it.

Answered cases to consult:
CCCCCCC(O)(c1ccc(F)cc1)C(CN1CCOCC1)c1ccccc1 (centres undefined)
rule met
CC(O)(c1ccc(Cl)cc1)C(CN1CCCCC1)c1ccccc1 (centres undefined)
rule met
CCN1CCCC1CNc1[nH]cnc2c3cc(Cl)ccc3nc1-2 (centres undefined)
rule not met
Oc1ccc(-c2nc(-c3ccc4oc5ccc(-c6[nH]c(-c7ccc(O)cc7)nc6-c6ccccc6)cc5c4c3)c(-c3ccccc3)[nH]2)cc1
rule met

-- ask // inclusive: inhibition at 25 µM at least 10%? input: O=C(NC1CCN(Cc2ccccc2)CC1)c1cc(C(=O)NC2CCN(Cc3ccccc3)CC2)cc(C(=O)NC2CCN(Cc3ccccc3)CC2)c1
-- reply rule not met

-- ask Answer whether inhibition at 25 µM of COc1ccc(CCn2c(=N)c(C(=O)NCc3cccnc3)cc3c(=O)n4cccc(C)c4nc32)cc1 is greater than or equal to 10%.
-- reply rule not met

-- ask Would you say CCOC(=O)c1ccc2nc(-c3ccccc3)cc(O)c2c1 shows inhibition at 25 µM at minimum 10%?
-- reply rule met

-- ask Has O=c1cc(NC2CCN(CCCc3ccccc3)CC2)c2cc(Cl)ccc2o1 a recorded inhibition at 25 µM greater than or equal to 10%?
-- reply rule met

* * *

Tested on: Mycobacterium tuberculosis
Test method notes: MMV: Screen against Mtb, single point, non replicating, at 25uM
Format: functional
Quantity: inhibition at 25 µM (%)
# unit: % | format: bare number

A selection of reference data follows.
CCOC(=O)c1c(NC(=O)c2ccccc2)sc2c(O)c(CN(CC)CC)ccc12
16
Cc1cc(NCCN2CCCCC2)c2ccc3ccccc3c2n1
15.5
COc1ccc(NC(=O)C2c3ccccc3C(=O)N(CC(C)C)C2c2cccs2)cc1Cl (stereo unspecified)
22.2
CCC1(C)CC(CCNCc2ccccc2O)(c2ccc(C)cc2)CCO1 (stereo unspecified)
2.96
CCCCOc1ccc(C(=O)Nc2cc(C)on2)cc1
15

Next, consider the following compound.
// field: inhibition at 25 µM; key: Cc1ccccc1OCCSc1nc2ccc(NC(=O)c3cccs3)cc2s1 ; value = 16.4

* * *

Tested on: Mycobacterium tuberculosis
Test method notes: MMV: Screen against Mtb, single point, non replicating, at 25uM
Type: functional
Quantity: inhibition at 25 µM
Phrase the answer as number then unit, nothing more needed.

Below: 2 compounds and their reported inhibition at 25 µM.
N=c1n(CCN2CCCCC2)c2ccccc2n1CC(O)c1cccc(Br)c1 (stereo not drawn)
12.9%
COc1ccc(CNC(=O)c2cc3c(=O)n4ccccc4nc3n(CCc3ccccc3)c2=N)cc1
6.82%

Memo: O=C1c2ccccc2-c2nnc(-c3ccc(Br)cc3)cc21 , reported inhibition at 25 µM: 1.49%

Note to self: inhibition at 25 µM recorded for CN(C)c1ccc(-c2nc3cc(N)ccc3[nH]2)cc1 was 16.4%

* * *

Test system: Mycobacterium tuberculosis
Test method notes: MMV: Screen against Mtb, single point, non replicating, at 25uM
Assay type: functional
Binary call on inhibition at 25 µM: Y from 30% upward, N beneath that.

Examples from the recorded data:
Cc1ccc(C(=O)c2oc3ccc4c(C)cc(=O)oc4c3c2C)cc1
N
COc1ccc(-c2cc(=O)oc3c4c(ccc23)OCN(Cc2ccc(F)cc2)C4)cc1
N
Cc1ccc(Cl)cc1N1CCN(CCCNC(=O)C2CCN(c3nc4ccccc4[nH]3)CC2)CC1
N

-- ask Decide: is the reported value of inhibition at 25 µM for COc1ccc(N2CCN(C(CNC(=O)C3CCCCC3)c3ccc4c(c3)OCO4)CC2)cc1 (stereo unspecified) equal to or greater than 30%?
-- reply N

-- ask Decide: inhibition at 25 µM of CCCCCCn1c(=N)n(CC(O)COc2cccc(C)c2)c2ccccc21 (stereo unspecified) >= 30%?
-- reply Y

-- ask Does the reported inhibition at 25 µM for COc1ccc2nc(N)nc(C)c2c1 fall at or above the 30% mark?
-- reply N

* * *

Each entry below lists one item and its recorded inhibition at 25 µM value.
Tested on: Mycobacterium tuberculosis
Test method notes: MMV: Screen against Mtb, single point, non replicating, at 25uM
Assay type: functional
Write it as a number; the unit % goes unstated.

COc1ccc(Nc2nc(NCc3ccccc3)c3ccccc3n2)cc1
53.9
c1ccc(CNc2nc(Nc3ccccc3)nc3ccccc23)cc1
21.2
CCCn1c(=N)c(C(=O)NC2CCCCC2)cc2c(=O)n3cccc(C)c3nc21
2.38
COc1ccc(-c2nonc2NC(=O)c2cccc(Cl)c2)cc1OC
15.7

Sure, the documented inhibition at 25 µM for COc1cc2cc(C(=O)Nc3ccccc3)c(N)nc2cc1OC is 1.39

// inhibition at 25 µM value for CC(C)(C)c1ccc(C(=O)Nc2c3c(nn2-c2cccc(Cl)c2)CSC3)cc1 : -4.72

Just for reference, ChEMBL document CHEMBL2094260 is where these values come from.
